assay: in vitro; settings: human, Caco-2, pH 7.4
REPORTED METRIC: Papp B→A at 2 h, 2 µM

MOLECULE	RESULT
[2H]C([2H])([2H])Oc1cc(C)c2[nH]ccc2c1CN1CC[C@@H](C2CC2)C[C@H]1c1ccc(C(=O)O)cc1 [Trifluoroacetate of compound 1]	19.4 ×10⁻⁶ cm/s

---

assay: Pharmacokinetic test in rats; format: in vivo, SD rats; conditions: male, rat, po; SD rats, plasma, i.g. (10 mg/kg); read-out: AUC0-24h

SAMPLE SMILES	AUC(0-t), ng·h/mL
CCO[C@H]1CCN(Cc2c(OC)cc(C)c3[nH]ccc23)[C@H](c2ccc(C(=O)O)cc2)C1	9870

---

assay: in vitro; settings: human, Caco-2, pH 7.4

COMPOUND	UNIT TEXT	Papp A→B at 2 h, 2 µM
[2H]C([2H])([2H])Oc1cc(C)c2[nH]ccc2c1CN1CC[C@@H](C2CC2)C[C@H]1c1ccc(C(=O)O)cc1 [Trifluoroacetate of compound 1]	×10⁻⁶ cm/s	1.77

---

assay: Pharmacokinetic test in rats; type: in vivo, SD rats; details: male, rat, plasma, po; SD rats, i.g. (10 mg/kg)
REPORTED METRIC: bioavailability

SAMPLE SMILES	REPORTED METRIC	RESULT
CCO[C@H]1CCN(Cc2c(OC)cc(C)c3[nH]ccc23)[C@H](c2ccc(C(=O)O)cc2)C1	bioavailability	49%

---

assay: Pharmacokinetic test in rats; type: in vivo, SD rats; settings: male, rat, po; SD rats, plasma, i.g. (10 mg/kg)

SAMPLE SMILES	half-life / h
CCO[C@H]1CCN(Cc2c(OC)cc(C)c3[nH]ccc23)[C@H](c2ccc(C(=O)O)cc2)C1	3.39

Where do the numbers come from? From patent EP4667465A1.
